# System: neonatal rat cardiomyocytes (NRCMs)
# Assay text: NRCM bioassay with pharmacological inhibitors (mechanism of cellular action)
# Type: cell-based
# Recorded conditions: 5 min preincubation; 11,12-EET 30 nM, C3, AH6089 10 μM, calphostin C 100 nM, H89 1 μM; EPA 3.3 μM, 17,18-EETeTr 30 nM, C13 30 nM
Measured quantity: inhibition of the negative chronotropic effects of EPA, 17,18-EETeTr and C13

query: inhibition of the negative chronotropic effects of EPA, 17,18-EETeTr and C13 for CCC1OC1C/C=C\CCCC/C=C\CCCCCCC(=O)O (stereo not shown) ?
result: strongly inhibited

query: inhibition of the negative chronotropic effects of EPA, 17,18-EETeTr and C13 for CCCCC/C=C\CC1OC1C/C=C\C/C=C\CCCC(=O)O (stereo not shown) ?
result: strongly inhibited

query: inhibition of the negative chronotropic effects of EPA, 17,18-EETeTr and C13 for CC(C)Oc1ccc2c(=O)c3cc(C(=O)O)ccc3oc2c1 ?
result: strongly inhibited

---

# Tested on: neonatal rat cardiomyocytes (NRCMs)
# Assay text: Antagonism of the negative chronotropic effect of agonists in NRCMs (identification of antagonists)
# Assay type: cell-based
# Recorded conditions: 5 min preincubation; C4 and potential antagonist each 30 nM
Measured quantity: inhibition of the agonistic effect of compound C4

Below, 5 compounds whose answers are already recorded.
query: inhibition of the agonistic effect of compound C4 for CCC1OC1C/C=C\CCCCCCCCCCCCC(=O)O (stereo not drawn) [Compound C5] ?
result: significantly inhibited

query: inhibition of the agonistic effect of compound C4 for CCC1OC1CCCCCCCCCCCCCCCC(=O)O (stereo not drawn) [Compound C8] ?
result: did not inhibit

query: inhibition of the agonistic effect of compound C4 for CCC1OC1C/C=C\CCCCCCC/C=C\CCCC(=O)O (stereo not drawn) [Compound C1] ?
result: did not inhibit

query: inhibition of the agonistic effect of compound C4 for CCC1OC1CCCCCCC/C=C\CCCCCCC(=O)O (stereo not drawn) [Compound C6] ?
result: did not inhibit

query: inhibition of the agonistic effect of compound C4 for CCC1OC1CCCCCCCCCC/C=C\CCCC(=O)O (stereo not drawn) [Compound C7] ?
result: did not inhibit

Turning to the following compound.
query: inhibition of the agonistic effect of compound C4 for CCC1OC1C/C=C\CCCC/C=C\CCCCCCC(=O)O (stereo not drawn) [Compound C3] ?
result: significantly inhibited

---

Measured quantity: melting point

Below, 4 compounds whose answers are already recorded.
query: melting point for CCC1OC1CCCCCCCCCCCCCCCC(=O)O (centres unmarked) ?
result: 62.1 to 62.5 °C

query: melting point for CCCC(=O)NCCCC/C=C\CCCCCCCCCC(=O)O ?
result: 99.2 to 99.6 °C

query: melting point for CCNC(=O)NCCCC/C=C\CCCCCCCCCC(=O)O ?
result: 83.1 to 83.3 °C

query: melting point for CCCC(=O)NC/C=C\CCCCCCCCCCCCC(=O)O [Compound C22, 16-Butyramidohexadec-14(Z)-enoic acid] ?
result: 72.7 to 73.1 °C

Turning to the following compound.
query: melting point for CCCCNC(=O)CCC/C=C\CCCCCCCCCC(=O)O ?
result: 78.2 to 78.8 °C

---

# Tested on: neonatal rat cardiomyocytes (NRCMs)
# Assay text: Chronotropic effect on spontaneous beating rate of cultured neonatal rat cardiomyocytes (identification of agonists)
# Format: cell-based
# Recorded conditions: 30 nM, incubation time 5 min, NRCM clusters
Known chronotropic effect (Δ beats/min), mean±SE of a selection of compounds
# output: bare number, implied unit beats/min

Below, 3 compounds whose answers are already recorded.
query: chronotropic effect (Δ beats/min), mean±SE for CCNC(=O)NCCCC/C=C\CCCCCCCCCC(=O)O [Compound C11] ?
result: −27.0

query: chronotropic effect (Δ beats/min), mean±SE for CCC1OC1C/C=C/C/C=C/C/C=C/C/C=C/CCCC(=O)O (stereo not shown) [17,18-EETeTr, reference compound] ?
result: −22.5

query: chronotropic effect (Δ beats/min), mean±SE for CNC(=O)C(=O)NCCCC/C=C\CCCCCCCCCC(=O)O [Compound C13] ?
result: −33.7

Turning to the following compound.
query: chronotropic effect (Δ beats/min), mean±SE for CCC1OC1CCCC/C=C\CCCCCCCCCC(=O)O (stereo not shown) [Compound C4] ?
result: −18.3
